Target: Metabotropic glutamate receptor 4 (Homo sapiens)
Sequence (Q14833 whole entry): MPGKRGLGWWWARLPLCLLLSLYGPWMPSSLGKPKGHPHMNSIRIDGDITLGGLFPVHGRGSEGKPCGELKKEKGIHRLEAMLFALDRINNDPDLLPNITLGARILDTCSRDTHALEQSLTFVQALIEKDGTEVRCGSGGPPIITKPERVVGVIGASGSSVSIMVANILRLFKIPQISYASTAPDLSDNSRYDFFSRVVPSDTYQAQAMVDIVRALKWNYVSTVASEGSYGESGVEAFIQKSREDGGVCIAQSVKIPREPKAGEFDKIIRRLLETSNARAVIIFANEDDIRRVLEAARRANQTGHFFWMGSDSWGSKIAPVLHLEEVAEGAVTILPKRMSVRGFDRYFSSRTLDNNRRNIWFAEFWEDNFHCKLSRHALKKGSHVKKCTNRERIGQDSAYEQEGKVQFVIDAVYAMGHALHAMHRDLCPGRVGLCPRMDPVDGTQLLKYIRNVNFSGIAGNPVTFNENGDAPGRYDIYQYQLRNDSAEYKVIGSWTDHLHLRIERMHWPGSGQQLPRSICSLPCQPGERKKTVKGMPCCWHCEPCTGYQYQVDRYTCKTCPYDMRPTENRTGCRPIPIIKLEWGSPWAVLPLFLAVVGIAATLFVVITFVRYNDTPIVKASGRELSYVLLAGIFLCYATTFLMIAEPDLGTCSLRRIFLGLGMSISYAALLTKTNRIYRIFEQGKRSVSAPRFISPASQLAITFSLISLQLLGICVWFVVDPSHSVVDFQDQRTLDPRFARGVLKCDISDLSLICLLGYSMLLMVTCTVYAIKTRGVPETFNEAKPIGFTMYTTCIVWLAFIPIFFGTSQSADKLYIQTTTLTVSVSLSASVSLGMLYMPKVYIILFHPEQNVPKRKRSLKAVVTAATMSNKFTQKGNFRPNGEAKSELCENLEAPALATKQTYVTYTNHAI
Experiment: Positive allosteric modulation of human mGluR4 expressed in CHO cells coexpressing Gqi5 assessed as calcium mobilization relative to PHCCC
Assay type: functional, cell-based
Readout kind: Activity (%)

# Chemical smiles, Readout kind, Scale unit, Endpoint value
data = [
    ("O=C(Nc1ccc(NC(=O)c2ccc(F)cc2F)c(Cl)c1)c1ccccn1", "Activity", "%", 24.6),
    ("O=C(Nc1ccc2c(ccn2C(=O)c2ccc(F)cc2Cl)c1)c1ccccn1", "Activity", "%", 71.7),
    ("COc1cc(NC(=O)C2CCCCC2)ccc1NC(=O)c1ccccc1Cl", "Activity", "%", 26.9),
    ("COc1cc(NC(=O)c2cccs2)ccc1NC(=O)c1ccccc1Cl", "Activity", "%", 63.4),
    ("COc1cc(NC(=O)c2ccncn2)ccc1NC(=O)c1ccccc1Cl", "Activity", "%", 77.9),
    ("COc1cc(NC(=O)c2cscn2)ccc1NC(=O)c1ccccc1Cl", "Activity", "%", 86.8),
    ("Cn1c(C(=O)Nc2ccc(NC(=O)c3ccccn3)cc2Cl)cc2ccccc21", "Activity", "%", 49.9),
    ("O=C(Nc1ccc2c(ccn2C(=O)c2ccccn2)c1)c1ccccc1Cl", "Activity", "%", 21.1),
    ("COc1cc(NC(=O)c2nccs2)ccc1NC(=O)c1ccccc1Cl", "Activity", "%", 77.6),
    ("Cc1ccccc1C(=O)Nc1ccc(NC(=O)c2ccccn2)cc1Cl", "Activity", "%", 72.5),
    ("O=C(Nc1ccc(NC(=O)c2ccccc2Cl)c(Cl)c1)c1ccccn1", "Activity", "%", 77.9),
    ("COc1ccccc1C(=O)n1ccc2cc(NC(=O)c3ccccn3)ccc21", "Activity", "%", 91.3),
    ("CC(C)C(=O)Nc1ccc(NC(=O)c2ccccn2)cc1Cl", "Activity", "%", 60),
    ("COc1cc(NC(=O)c2ccc(Br)o2)ccc1NC(=O)c1ccccc1Cl", "Activity", "%", 87),
    ("O=C(Nc1ccc(NC(=O)c2ccccc2Cl)c(C(F)(F)F)c1)c1ccccn1", "Activity", "%", 69.5),
    ("COc1cc(NC(=O)c2cnccn2)ccc1NC(=O)c1ccccc1Cl", "Activity", "%", 74.3),
    ("O=C(Nc1ccc(NC(=O)C2CCCCC2)c(Cl)c1)c1ccccn1", "Activity", "%", 59.2),
    ("COc1cc(NC(=O)c2ccccn2)ccc1NC(=O)c1ccccc1Cl", "Activity", "%", 79.4),
    ("O=C(Nc1ccc(NC(=O)c2ccc(-c3ccccc3)o2)c(Cl)c1)c1ccccn1", "Activity", "%", 24.9),
    ("O=C(Nc1ccc(NC(=O)c2ccccc2Cl)cc1)c1ccccn1", "Activity", "%", 33.6),
    ("COc1cc(NC(=O)c2ccc(-c3ccccc3)o2)ccc1NC(=O)c1ccccc1Cl", "Activity", "%", 16.3),
    ("O=C(Nc1ccc(NC(=O)c2nccs2)c(Cl)c1)c1ccccn1", "Activity", "%", 61.5),
    ("COc1cc(NC(=O)c2ccco2)ccc1NC(=O)c1ccccc1Cl", "Activity", "%", 62.7),
    ("O=C(Nc1ccc(NC(=O)c2cncs2)c(Cl)c1)c1ccccn1", "Activity", "%", 86.7),
    ("O=C(Nc1ccc(NC(=O)c2ccccn2)cc1Cl)c1cc(Cl)cc(Cl)c1", "Activity", "%", 37.4),
    ("O=C(Nc1ccc(NC(=O)c2ccc(F)cc2Cl)c(Cl)c1)c1ccccn1", "Activity", "%", 61.1),
]

====

Biological target: Metabotropic glutamate receptor 4 (Rattus norvegicus) (UniProt P31423)
Sequence (P31423 whole entry): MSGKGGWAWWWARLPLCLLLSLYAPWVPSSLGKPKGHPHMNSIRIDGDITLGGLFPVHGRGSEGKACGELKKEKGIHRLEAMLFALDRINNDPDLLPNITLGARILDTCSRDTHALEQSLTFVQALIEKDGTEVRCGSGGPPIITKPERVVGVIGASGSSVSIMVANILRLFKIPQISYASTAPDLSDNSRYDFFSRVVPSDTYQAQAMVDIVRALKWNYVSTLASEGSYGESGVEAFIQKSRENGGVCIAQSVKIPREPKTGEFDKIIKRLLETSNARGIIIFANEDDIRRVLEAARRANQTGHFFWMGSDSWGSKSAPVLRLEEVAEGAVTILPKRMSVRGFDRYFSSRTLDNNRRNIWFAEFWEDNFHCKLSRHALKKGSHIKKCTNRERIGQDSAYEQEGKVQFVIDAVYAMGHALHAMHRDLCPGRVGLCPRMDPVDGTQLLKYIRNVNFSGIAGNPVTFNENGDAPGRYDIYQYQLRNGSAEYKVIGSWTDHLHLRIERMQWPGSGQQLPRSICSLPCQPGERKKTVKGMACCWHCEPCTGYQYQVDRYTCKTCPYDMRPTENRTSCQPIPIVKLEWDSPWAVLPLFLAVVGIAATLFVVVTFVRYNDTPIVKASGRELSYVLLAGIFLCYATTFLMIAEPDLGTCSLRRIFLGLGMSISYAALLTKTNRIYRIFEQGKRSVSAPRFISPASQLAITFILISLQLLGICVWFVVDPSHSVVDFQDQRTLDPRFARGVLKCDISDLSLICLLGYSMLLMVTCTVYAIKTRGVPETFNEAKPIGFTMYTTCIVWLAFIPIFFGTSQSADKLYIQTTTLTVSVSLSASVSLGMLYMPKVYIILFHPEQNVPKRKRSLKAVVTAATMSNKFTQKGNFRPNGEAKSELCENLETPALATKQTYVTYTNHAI
Assay: Positive allosteric modulation of rat mGluR4 expressed in CHO cells coexpressing Gqi5 assessed as calcium mobilization relative to PHCCC
Type: functional, cell-based

# Compound, Activity, %
data = [
    ("O=C(Nc1ccc(NC(=O)c2ccccc2Cl)cc1)c1ccccn1", 49.6),
    ("COc1cc(NC(=O)c2cccs2)ccc1NC(=O)c1ccccc1Cl", 96.7),
    ("O=C(Nc1ccc(NC(=O)c2ccccc2Cl)c(C(F)(F)F)c1)c1ccccn1", 102),
    ("O=C(Nc1ccc2c(ccn2C(=O)c2ccc(F)cc2Cl)c1)c1ccccn1", 104),
    ("COc1cc(NC(=O)C2CCCCC2)ccc1NC(=O)c1ccccc1Cl", 43.2),
    ("COc1ccccc1C(=O)n1ccc2cc(NC(=O)c3ccccn3)ccc21", 107),
    ("O=C(Nc1ccc(NC(=O)c2cccs2)c(Cl)c1)c1ccccn1", 93.8),
    ("O=C(Nc1ccc(NC(=O)c2nccs2)c(Cl)c1)c1ccccn1", 106),
    ("O=C(Nc1ccc(NC(=O)c2ccc(-c3ccccc3)o2)c(Cl)c1)c1ccccn1", 45.6),
    ("O=C(Nc1ccc(NC(=O)c2ccccc2F)c(Cl)c1)c1ccccn1", 71.6),
    ("O=C(Nc1ccc(NC(=O)c2ccccc2Cl)c(F)c1)c1ccccn1", 91.4),
    ("COc1cc(NC(=O)C2CCCO2)ccc1NC(=O)c1ccccc1Cl (configuration not stated)", 27.1),
    ("O=C(Nc1ccc(NC(=O)c2ccc(F)cc2Cl)c(Cl)c1)c1ccccn1", 119),
    ("O=C(Nc1ccc(NC(=O)c2ccccc2Cl)c(Cl)c1)c1ccccn1", 128),
    ("O=C(Nc1ccc(NC(=O)c2ccccn2)cc1Cl)c1ccccc1", 74.2),
    ("COc1cc(NC(=O)c2cscn2)ccc1NC(=O)c1ccccc1Cl", 132),
    ("COc1cc(NC(=O)c2ccco2)ccc1NC(=O)c1ccccc1Cl", 122),
    ("COc1cc(NC(=O)c2ccc(-c3ccccc3)o2)ccc1NC(=O)c1ccccc1Cl", 16.3),
    ("O=C(Nc1ccc(NC(=O)c2ccccn2)cc1Cl)c1cc(Cl)cc(Cl)c1", 61),
    ("CC(C)C(=O)Nc1ccc(NC(=O)c2ccccn2)cc1Cl", 109),
    ("Cc1ccccc1C(=O)Nc1ccc(NC(=O)c2ccccn2)cc1Cl", 123),
    ("COc1cc(NC(=O)c2nccs2)ccc1NC(=O)c1ccccc1Cl", 134),
]

====

Target: UniProt:P31423
Test: Positive allosteric modulation of rat mGluR4 expressed in CHO cells coexpressing Gqi5 assessed as potentiation of glutamate-induced calcium mobilization
Assay type: functional, cell-based
Use 7 as the dividing line for fold change (FC), with the line itself on the TRUE side and lower values as FALSE.

# Chemical smiles, Test system, Cat
measured = [
    ("O=C(Nc1ccc(NC(=O)c2nccs2)c(Cl)c1)c1ccccn1", "UniProt:P31423", "FALSE"),
    ("Cc1ccccc1C(=O)Nc1ccc(NC(=O)c2ccccn2)cc1Cl", "UniProt:P31423", "TRUE"),
    ("COc1cc(NC(=O)c2ccccn2)ccc1NC(=O)c1ccccc1Cl", "UniProt:P31423", "TRUE"),
    ("COc1ccccc1C(=O)n1ccc2cc(NC(=O)c3ccccn3)ccc21", "UniProt:P31423", "FALSE"),
    ("COc1cc(NC(=O)c2nccs2)ccc1NC(=O)c1ccccc1Cl", "UniProt:P31423", "TRUE"),
    ("O=C(Nc1ccc(NC(=O)c2ccc(F)cc2Cl)c(Cl)c1)c1ccccn1", "UniProt:P31423", "FALSE"),
    ("O=C(Nc1ccc(NC(=O)c2ccccc2Cl)c(F)c1)c1ccccn1", "UniProt:P31423", "FALSE"),
]

====

Biological target: Metabotropic glutamate receptor 4 (Rattus norvegicus) (UniProt P31423)
Test: Positive allosteric modulation of rat mGluR4 expressed in CHO cells coexpressing Gqi5 assessed as calcium mobilization relative to PHCCC
Type: functional, cell-based

# Chemical smiles, Activity, %
rows = [
    ("O=C(Nc1ccc(NC(=O)C2CCCCC2)c(Cl)c1)c1ccccn1", 106),
    ("O=C(Nc1ccc2c(ccn2C(=O)c2ccccn2)c1)c1ccccc1Cl", 17.6),
    ("COc1ccccc1C(=O)Nc1ccc(NC(=O)c2ccccn2)cc1Cl", 19),
    ("COc1cc(NC(=O)c2ccccn2)ccc1NC(=O)c1ccccc1Cl", 147),
]

====

Biological target: Metabotropic glutamate receptor 4 (Rattus norvegicus)
Assay: Positive allosteric modulation of rat mGluR4 expressed in CHO cells coexpressing Gqi5 assessed as calcium mobilization relative to PHCCC
Type: functional, cell-based
Decision: Activity beneath 90% gives yes; Activity meeting or exceeding 90% gives no.

# Chemical smiles, Test system, Cat
rows = [
    ("Cn1c(C(=O)Nc2ccc(NC(=O)c3ccccn3)cc2Cl)cc2ccccc21", "Metabotropic glutamate receptor 4 (Rattus norvegicus)", "yes"),
    ("COc1cc(NC(=O)c2cnccn2)ccc1NC(=O)c1ccccc1Cl", "Metabotropic glutamate receptor 4 (Rattus norvegicus)", "no"),
    ("COc1cc(NC(=O)c2ccc(Br)o2)ccc1NC(=O)c1ccccc1Cl", "Metabotropic glutamate receptor 4 (Rattus norvegicus)", "no"),
    ("O=C(Nc1ccc(NC(=O)c2ccc(F)cc2F)c(Cl)c1)c1ccccn1", "Metabotropic glutamate receptor 4 (Rattus norvegicus)", "yes"),
    ("COc1cc(NC(=O)c2ccncn2)ccc1NC(=O)c1ccccc1Cl", "Metabotropic glutamate receptor 4 (Rattus norvegicus)", "no"),
    ("O=C(Nc1ccc(NC(=O)c2cncs2)c(Cl)c1)c1ccccn1", "Metabotropic glutamate receptor 4 (Rattus norvegicus)", "no"),
]
